- Test system: c-myc in 22RV-1 cells
- Method Description: Human c-myc ELISA assay
- Format: cell-based
- Measurement Conditions: Homo sapiens, 22Rv1, 18 h, read-out: Degradation of BRD4: Maximum inhibition (%) c-Myc ELISA in 22RV1 cells
Record form. Attribute: Emax. Fill in for each entry.

Using the record for "Cc1ncsc1-c1ccc([C@H](C)NC(=O)[C@@H]2C[C@@H](O)CN2C(=O)[C@@H](NC(=O)CCc2cccc(OCCNC(=O)C[C@@H]3N=C(c4ccc(Cl)cc4)c4c(sc(C)c4C)-n4c(C)nnc43)c2)C(C)(C)C)cc1" , report its Emax.
100%

Using the record for "Cc1ncsc1-c1ccc(CNC(=O)[C@@H]2C[C@@H](O)CN2C(=O)[C@@H](NC(=O)COCCOCCOCCCCNC(=O)C[C@@H]2N=C(c3ccc(Cl)cc3)c3c(sc(C)c3C)-n3c(C)nnc32)C(C)(C)C)cc1" , report its Emax.
97%

Using the record for "Cc1ncsc1-c1ccc(CNC(=O)[C@@H]2C[C@@H](O)CN2C(=O)[C@@H](NC(=O)COCCCOCCCOc2ccc(C3(NC(=O)C[C@@H]4N=C(c5ccc(Cl)cc5)c5c(sc(C)c5C)-n5c(C)nnc54)CC3)cc2)C(C)(C)C)cc1" , report its Emax.
100%

Using the record for "Cc1ncsc1-c1ccc([C@H](C)NC(=O)[C@@H]2C[C@@H](O)CN2C(=O)[C@@H](NC(=O)COCCOCCCOc2ccc([C@H](C)NC(=O)C[C@@H]3N=C(c4ccc(Cl)cc4)c4c(sc(C)c4C)-n4c(C)nnc43)cc2)C(C)(C)C)cc1" , report its Emax.
99.7%

The reported numbers originate from patent US11554171B2.
